- assay: Metabolic stability in rat plasma at 37 degC
- Assay type: ADME, cell-free

smiles: N[C@@H](CNC(=O)N[C@@H](CSSCC(=O)C(=O)NCCc1ccc(O)c(O)c1)C(=O)NCC(=O)O)C(=O)O
half-life: 3 h
